Target: Dopamine uptake (Rattus norvegicus)
Construct: A crude synaptosomal membrane preparation from various regions of rat brain was prepared
Sequence (P23977 whole entry): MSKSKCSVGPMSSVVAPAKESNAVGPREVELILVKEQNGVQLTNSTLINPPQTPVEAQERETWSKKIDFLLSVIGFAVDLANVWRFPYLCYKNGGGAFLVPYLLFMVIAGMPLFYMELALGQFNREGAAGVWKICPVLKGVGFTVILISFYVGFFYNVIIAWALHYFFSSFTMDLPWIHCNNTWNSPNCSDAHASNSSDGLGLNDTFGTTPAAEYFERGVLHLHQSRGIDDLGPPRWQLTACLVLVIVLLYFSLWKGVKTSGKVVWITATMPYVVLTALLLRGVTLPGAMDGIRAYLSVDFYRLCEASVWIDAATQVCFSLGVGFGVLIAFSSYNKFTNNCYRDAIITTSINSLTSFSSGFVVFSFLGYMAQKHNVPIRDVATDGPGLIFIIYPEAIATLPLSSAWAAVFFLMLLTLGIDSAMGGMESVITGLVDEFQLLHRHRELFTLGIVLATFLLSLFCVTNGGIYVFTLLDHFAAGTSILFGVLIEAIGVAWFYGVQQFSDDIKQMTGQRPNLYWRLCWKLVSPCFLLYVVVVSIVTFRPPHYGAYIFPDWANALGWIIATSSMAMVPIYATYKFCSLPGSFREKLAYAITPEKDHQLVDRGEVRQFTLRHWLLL
Assay: [3H]Dopamine uptake inhibition in crude synaptosomal preparation
Details: rat brain synaptosomal preparation, [3H]DA tracer, GBR12909 as reference; read-out: IC50 (nmol/L), Dopamine
Reported Endpoint: IC50

>>> endpoint_result("N#Cc1ccc2[nH]cc(CCCCN3CCN(c4ccc5oc(C(N)=O)cc5c4)CC3)c2n1")
"> 200 nmol/L"

Lookup: Quote IC50 reported for `N#Cc1cnc2[nH]cc(CCCCN3CCN(c4ccc5oc(C(N)=O)cc5c4)CC3)c2c1` please.
Found: > 200 nmol/L

----------
pKi: −log10 of the molar value.
The following compounds each carry a recorded pKi for 5-HT1A receptor (Homo sapiens).

Lookup: Provide 5-HT1A receptor (Homo sapiens) pKi reading for `N#Cc1cnc2[nH]cc(CCCCN3CCN(c4ccc5oc(C(N)=O)cc5c4)CC3)c2c1` .
Found: 6.82 to 7.00

Lookup: Provide measured pKi on 5-HT1A receptor (Homo sapiens) for `N#Cc1ccc2[nH]cc(CCCCN3CCN(c4ccc5oc(C(N)=O)cc5c4)CC3)c2n1` please.
Sequence (P08908 whole entry): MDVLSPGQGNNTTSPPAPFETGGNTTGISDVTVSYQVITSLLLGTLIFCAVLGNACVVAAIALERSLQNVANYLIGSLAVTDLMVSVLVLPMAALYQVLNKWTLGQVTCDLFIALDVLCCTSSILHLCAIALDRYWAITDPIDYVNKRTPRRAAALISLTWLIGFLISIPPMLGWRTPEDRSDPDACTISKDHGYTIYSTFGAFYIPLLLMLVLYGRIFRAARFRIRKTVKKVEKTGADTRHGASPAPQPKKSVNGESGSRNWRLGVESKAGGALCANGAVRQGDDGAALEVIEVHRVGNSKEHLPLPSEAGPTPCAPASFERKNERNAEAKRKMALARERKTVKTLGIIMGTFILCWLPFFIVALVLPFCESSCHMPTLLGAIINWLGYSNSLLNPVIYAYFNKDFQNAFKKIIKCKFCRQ
Found: 7.30 to 9.00

----------
Biological target: Norepinephrine uptake (Rattus norvegicus)
Sequence (Q63380 1-617): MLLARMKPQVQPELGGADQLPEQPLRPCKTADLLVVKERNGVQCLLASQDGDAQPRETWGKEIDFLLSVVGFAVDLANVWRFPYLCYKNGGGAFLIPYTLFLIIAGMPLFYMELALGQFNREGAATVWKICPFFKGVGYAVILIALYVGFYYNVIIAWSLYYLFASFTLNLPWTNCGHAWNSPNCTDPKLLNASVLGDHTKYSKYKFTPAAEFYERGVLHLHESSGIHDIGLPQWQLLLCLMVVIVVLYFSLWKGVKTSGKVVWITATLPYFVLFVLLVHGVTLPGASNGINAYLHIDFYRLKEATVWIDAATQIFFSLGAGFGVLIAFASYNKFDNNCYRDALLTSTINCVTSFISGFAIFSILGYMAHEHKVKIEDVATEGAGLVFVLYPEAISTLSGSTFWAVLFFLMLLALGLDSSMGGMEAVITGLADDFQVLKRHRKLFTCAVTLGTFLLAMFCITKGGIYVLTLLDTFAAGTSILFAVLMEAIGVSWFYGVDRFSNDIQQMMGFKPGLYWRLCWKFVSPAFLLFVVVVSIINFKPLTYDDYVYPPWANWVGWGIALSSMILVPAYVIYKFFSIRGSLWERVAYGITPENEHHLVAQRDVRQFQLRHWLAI
Assay: Norepinephrine uptake, [3H]NE as tracer
Conditions: [3H]NE tracer, protriptyline as reference; read-out: IC50 (nmol/L), Norepinephrine
Property: IC50; scope: individual molecules

>>> endpoint_result("N#Cc1ccc2[nH]cc(CCCCN3CCN(c4ccc5oc(C(N)=O)cc5c4)CC3)c2n1")
"151 to 200 nmol/L"

Pending molecule:
Lookup: Please report the measured IC50 for `N#Cc1cnc2[nH]cc(CCCCN3CCN(c4ccc5oc(C(N)=O)cc5c4)CC3)c2c1`
Found: 101 to 150 nmol/L

Entry source: patent US20110059982A1
